Exercise: for every item that follows, state its recorded IC50.
- target entity: S. aureus SPase (Staphylococcus aureus, UniProt P0A070)
- Construct: Full length His-tagged S. aureus SPase protein was expressed similarly; His-tag; made in house; host or cells: E. coli BL21(DE3)
- assay overview: Enzymatic fluorogenic substrate cleavage assay for IC50
- Type: biochemical

INPUT: Give me measured IC50, please, for this molecule: `CCCCCCCCCCCCCCCC(=O)N(C)[C@H](CO)C(=O)N[C@H](C)C(=O)NCC(=O)N(C)[C@@H]1C(=O)N[C@@H](C)C(=O)N[C@H](C(=O)N[C@@H](C)CO)Cc2ccc(O)c(c2)-c2cc1ccc2O`
OUTPUT: > 10 µM

INPUT: For the molecule `CCCCCCCCCCCCCCCC(=O)N(C)[C@H](CO)C(=O)N[C@H](C)C(=O)NCC(=O)N(C)[C@@H]1C(=O)N[C@@H](C)C(=O)N[C@H](C(=O)OCCN)Cc2ccc(O)c(c2)-c2cc1ccc2O` , give its reported IC50.
OUTPUT: 1 to 10 µM

* * *

- target entity: E. coli SPase (Escherichia coli)
- Construct: Full length His-tagged E. coli SPase proteins were expressed in E. coli BL21(DE3); His-tag; made in house; host or cells: E. coli BL21(DE3)
- Sequence (P00803 whole entry): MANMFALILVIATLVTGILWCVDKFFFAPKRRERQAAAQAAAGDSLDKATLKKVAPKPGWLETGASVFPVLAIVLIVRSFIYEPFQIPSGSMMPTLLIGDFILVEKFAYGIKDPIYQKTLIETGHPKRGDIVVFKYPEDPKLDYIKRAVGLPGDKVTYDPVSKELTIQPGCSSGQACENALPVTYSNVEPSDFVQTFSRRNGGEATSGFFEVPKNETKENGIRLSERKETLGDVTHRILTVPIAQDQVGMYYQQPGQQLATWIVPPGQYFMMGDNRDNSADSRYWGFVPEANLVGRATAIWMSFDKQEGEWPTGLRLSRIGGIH
- assay overview: Enzymatic fluorogenic substrate cleavage assay for IC50
- Assay type: biochemical
endpoint: IC50

INPUT: Report IC50 for `CCCCCCCCCCCCCCCC(=O)N[C@H](CCN)C(=O)N[C@H](C)C(=O)NCC(=O)N(C)[C@@H]1C(=O)N[C@@H](C)C(=O)N[C@H](C(=O)O)Cc2ccc(O)c(c2)-c2cc1ccc2O`
OUTPUT: 1000 to 10000 nM

INPUT: Name the recorded IC50 of the molecule listed here: `CCCCCCCCCCCCCCCC(=O)N(C)[C@H](CO)C(=O)N[C@H](C)C(=O)NCC(=O)N(C)[C@@H]1C(=O)N[C@@H](C)C(=O)N[C@H](C(=O)N[C@H](CO)CCC)Cc2ccc(O)c(c2)-c2cc1ccc2O`
OUTPUT: 1000 to 10000 nM

INPUT: Tell me IC50 reported for CCCCCCCCCCCCCCCC(=O)N(C)C(CO)C(=O)N[C@H](C)C(=O)NCC(=O)N(C)[C@@H]1C(=O)N[C@@H](C)C(=O)NC(C(=O)NCC(=O)C(=O)N(C)C)Cc2ccc(O)c(c2)-c2cc1ccc2O (stereo partly drawn)
OUTPUT: < 1000 nM

INPUT: Return reported IC50. Input molecule: `CCCCCCCCCCCCCCCC(=O)N(C)[C@H](CO)C(=O)N[C@H](C)C(=O)NCC(=O)N(C)[C@@H]1C(=O)N[C@@H](C)C(=O)N[C@H](C(=O)OCCN)Cc2ccc(O)c(c2)-c2cc1ccc2O`
OUTPUT: 1000 to 10000 nM

INPUT: Please list IC50 recorded for the molecule `CCCCCCCCCCCCCCCC(=O)N(C)[C@H](CO)C(=O)N[C@H](C)C(=O)NCC(=O)N(C)[C@@H]1C(=O)N[C@@H](C)C(=O)N[C@H](C(=O)NCCO)Cc2ccc(O)c(c2)-c2cc1ccc2O`
OUTPUT: < 1000 nM

INPUT: Return IC50 for the following molecule: `CCCCCCCCCCC(=O)N(C)[C@H](CO)C(=O)N[C@H](C)C(=O)NCC(=O)N(C)[C@@H]1C(=O)N[C@@H](C)C(=O)N[C@H](C(=O)O)Cc2ccc(O)c(c2)-c2cc1ccc2O`
OUTPUT: < 1000 nM

INPUT: Tell me its IC50 given `CCCCCCCCCCCCCCCC(=O)N(C)[C@H](CO)C(=O)N[C@H](C)C(=O)NCC(=O)N(C)[C@@H]1C(=O)N[C@@H](C)C(=O)N[C@H](C(=O)NC(CO)(CO)CO)Cc2ccc(O)c(c2)-c2cc1ccc2O` as the entry.
OUTPUT: < 1000 nM

INPUT: Give IC50 for `CCCCCCCCCCCCCCCC(=O)N(C)[C@H](CO)C(=O)N[C@H](C)C(=O)N[C@@H](C)C(=O)N(C)[C@@H]1C(=O)N[C@@H](C)C(=O)N[C@H](C(=O)O)Cc2ccc(O)c(c2)-c2cc1ccc2O`
OUTPUT: < 1000 nM

INPUT: Specify measured IC50 for `CCCCCCCCCCCCCCCC(=O)N(C)[C@H](CO)C(=O)N[C@H](C)C(=O)NCC(=O)N(C)[C@@H]1C(=O)N[C@@H](C)C(=O)N[C@H](C(=O)N[C@H](C)CO)Cc2ccc(O)c(c2)-c2cc1ccc2O` .
OUTPUT: > 10000 nM

INPUT: Check the records and state IC50 for CCCCCCCCCCCCCCCC(=O)N(C)[C@H](CO)C(=O)N[C@H](C)C(=O)NCC(=O)N(C)[C@@H]1C(=O)N[C@@H](C)C(=O)N[C@H](C(=O)NCC(O)C(=O)OC)Cc2ccc(O)c(c2)-c2cc1ccc2O (stereo partly drawn)
OUTPUT: < 1000 nM

INPUT: For the molecule `CCCCCCCCCCCCC(=O)N(C)[C@H](CO)C(=O)N[C@H](C)C(=O)NCC(=O)N(C)[C@@H]1C(=O)N[C@@H](C)C(=O)N[C@H](C(=O)O)Cc2ccc(O)c(c2)-c2cc1ccc2O` , give its reported IC50.
OUTPUT: < 1000 nM

INPUT: Return the recorded IC50 value; entry: `CCCCCCCCCCCCCCCC(=O)N(C)[C@H](CO)C(=O)N[C@H](C)C(=O)NCC(=O)N(C)[C@@H]1C(=O)N[C@@H](C)C(=O)N[C@H](C(=O)NC[C@H](C)O)Cc2ccc(O)c(c2)-c2cc1ccc2O`
OUTPUT: 1000 to 10000 nM

INPUT: # return recorded IC50 for entry CCCCCCCCCCCCCCCC(=O)N(C)C(CO)C(=O)N[C@H](C)C(=O)NCC(=O)N(C)[C@@H]1C(=O)N[C@@H](C)C(=O)NC(C(=O)NCC(O)C(N)=O)Cc2ccc(O)c(c2)-c2cc1ccc2O (stereo partly drawn)
OUTPUT: 1000 to 10000 nM

INPUT: Return IC50 (reported value) for this molecule: `CCCCCCCCCCCCCCCC(=O)N(C)[C@H](CO)C(=O)N[C@H](C)C(=O)NCC(=O)N(C)[C@@H]1C(=O)N[C@@H](C)C(=O)N[C@H](C(=O)N[C@@H](CO)C(C)C)Cc2ccc(O)c(c2)-c2cc1ccc2O`
OUTPUT: 1000 to 10000 nM

INPUT: Input `CCCCCCCCCCCCCCCC(=O)N[C@H](CO)C(=O)N[C@H](C)C(=O)N[C@@H](C)C(=O)N(C)[C@@H]1C(=O)N[C@@H](C)C(=O)N[C@H](C(=O)O)Cc2ccc(O)c(c2)-c2cc1ccc2O` , output reported IC50.
OUTPUT: < 1000 nM

INPUT: Give the measured IC50 for `CCCCCCCCCCCCCCCC(=O)N(C)[C@H](CO)C(=O)N[C@H](C)C(=O)NCC(=O)N(C)[C@@H]1C(=O)N[C@@H](C)C(=O)N[C@H](C(=O)N[C@@H](C)CO)Cc2ccc(O)c(c2)-c2cc1ccc2O`
OUTPUT: 1000 to 10000 nM

INPUT: Quick one: give measured IC50 for `CCCCCCCCCCCCCCCC(=O)N(C)[C@H](CO)C(=O)N[C@H](C)C(=O)NCC(=O)N(C)[C@@H]1C(=O)N[C@@H](C)C(=O)N[C@H](C(=O)O)Cc2ccc(OC)c(c2)-c2cc1ccc2OC`
OUTPUT: > 10000 nM

INPUT: Recall and state the measured IC50 for CCCCCCCCCCCCCCCC(=O)N(C)C(CO)C(=O)N[C@H](C)C(=O)NCC(=O)N(C)[C@@H]1C(=O)N[C@@H](C)C(=O)NC(C(=O)NCC(O)CO)Cc2ccc(O)c(c2)-c2cc1ccc2O (stereo partly drawn) .
OUTPUT: 1000 to 10000 nM
